# System: RXF-631 renal
# Experimental details: NCI tumour cell line growth inhibition, 48 h
Where a SMILES comes first, the peptide text is derived from it. [ ]: non-standard residue; d: D form. Phe(4-Cl) = N[CH](Cc1ccc(Cl)cc1)C(=O)O
Measurement name: TGI

Q: I am curious: what TGI value has been reported for O=C(O)CN(c1ccccc1)S(=O)(=O)c1ccccc1[N+](=O)[O-] ?
A: > 100 µM

Q: I am curious: what TGI value has been reported for CC(O)C(NC(=O)C(Cc1ccccc1)NC(=O)C(NC(=O)C(CCCCN)NC(=O)C(Cc1c[nH]c2ccccc12)NC(=O)C(Cc1ccc(O)cc1)NC(=O)C(Cc1ccc(Cl)cc1)NC(=O)C(N)Cc1ccccc1)C(C)O)C(N)=O (stereo not given) (H-F[Phe(4-Cl)]YWKTFT-NH2; configuration not given here) ?
A: 42.4 µM

Q: I am curious: what TGI value has been reported for COC(=O)c1cccc2cccc(C(=O)Nc3ccc(C)cc3C)c12 ?
A: > 100 µM

Q: I am curious: what TGI value has been reported for COc1ccc(C2C(C(=O)O)=C(CO)Oc3cc4c(cc32)OCO4)cc1 (stereo not given) ?
A: > 100 µM

Q: I am curious: what TGI value has been reported for Cc1ccccc1N(CCC#N)C1=NN(C(=O)CC(=O)Nc2ccccc2)C(c2ccccc2)C1 (stereo not given) ?
A: > 100 µM

---

# Tested on: ACHN renal
# Experimental details: NCI tumour cell line growth inhibition, 48 h
Measurement name: TGI

Q: I am curious: what TGI value has been reported for NCc1ccc(-c2ccc(CN)s2)s1 ?
A: > 100 µM

Q: I am curious: what TGI value has been reported for NC(=S)N/N=C/c1ccc(OC(=O)COc2ccc(Cl)cc2)cn1 ?
A: > 100 µM

Q: I am curious: what TGI value has been reported for CCC#CC[C@H]1C/C=C2/C(=O)C=C[C@@H]2C/C=C\CCCC(=O)O1 ?
A: 1.56 µM

Q: I am curious: what TGI value has been reported for Cc1sc2nc(N(C)C)oc(=O)c2c1C ?
A: > 100 µM

Q: I am curious: what TGI value has been reported for O=C1CC(Br)c2c(Br)sc(Br)c21 (configuration not stated) ?
A: 31.6 µM

Q: I am curious: what TGI value has been reported for Cc1ccc(S(=O)(=O)NC(=O)NCc2ccc(S(N)(=O)=O)cc2)cc1 ?
A: > 100 µM

Q: I am curious: what TGI value has been reported for O=S(=O)(O)CCSSCCS(=O)(=O)O ?
A: > 1000 µM

Q: I am curious: what TGI value has been reported for O=C(O)c1cccc(Nc2c(C(=O)O)cccc2[N+](=O)[O-])c1 ?
A: > 100 µM

Q: I am curious: what TGI value has been reported for CN1CCCC2C(c3ccccc3)C(C3=NCCCC3)C(c3ccccc3)CC21 (configuration not stated) ?
A: > 100 µM

Q: I am curious: what TGI value has been reported for CCC1CN2CCc3cc(OC)c(OC)cc3C2CC1CC1c2cc(OC)c(OC)cc2CCN1C(=O)C(N)Cc1ccccc1 (configuration not stated) ?
A: 11.8 µM

Q: I am curious: what TGI value has been reported for Cc1ccc(N(C(=O)CC(=O)NN)C(=O)c2ccccc2Cl)cc1 ?
A: > 100 µM

Q: I am curious: what TGI value has been reported for CC(=O)C(C(=O)c1ccc(C)cc1)[C@@H]1OC(C)(C)O[C@@H]1[C@H]1COC(C)(C)O1 (some centres not stated) ?
A: 32.5 µM

Q: I am curious: what TGI value has been reported for C1C2CC3CC1CC(c1nn4c(C56CC7CC(CC(C7)C5)C6)nnc4s1)(C2)C3 ?
A: > 100 µM

Q: I am curious: what TGI value has been reported for CC[O-].CC[O-].O=C1c2ccccc2C(=O)c2c(O)ccc([O-])c21.O=C1c2ccccc2C(=O)c2c(O)ccc([O-])c21.[Ti+4] ?
A: > 100 µM

Q: I am curious: what TGI value has been reported for Cc1ccccc1N(CCC#N)C1=NN(C(=O)CC(=O)Nc2ccccc2)C(c2ccccc2)C1 (configuration not stated) ?
A: > 100 µM

Q: I am curious: what TGI value has been reported for O=c1cccccc1NCCCNc1cccccc1=O ?
A: > 100 µM

Q: I am curious: what TGI value has been reported for CC12CCCC(O)C1CCC1=CC3(CCC12)SCCS3 (configuration not stated) ?
A: > 10 µM

Q: I am curious: what TGI value has been reported for O=c1[nH]c(=O)n(C/C=C/CO)nc1Br ?
A: > 100 µM

Q: I am curious: what TGI value has been reported for COc1cc(OC)c(/C=C/C(=O)c2c(OC)cccc2OC)c(OC)c1 ?
A: > 100 µM

Q: I am curious: what TGI value has been reported for COC(=O)C1=NC(=S)NC(c2ccccc2)C1c1nc2ccccc2s1 (configuration not stated) ?
A: > 100 µM

Q: I am curious: what TGI value has been reported for CC(=O)OC1=NN=C2COC(c3ccccc3OC(C)=O)=NN2C1 ?
A: > 50 µM

Q: I am curious: what TGI value has been reported for NC(CC(=O)OCc1ccccc1)C(=O)OCc1ccccc1 (configuration not stated) ?
A: > 100 µM
